Reference for the values: paper PMC9738062

compounds and their reported pIC50
tested on: Vibrio campbellii BAA 1118 (AI-1); assay: Viability of the quorum-sensing reporter culture (resazurin assay), AI-1 strain; type: cell-based; details: BAA1118, V. campbellii BAA 1118, resazurin assay, read-out: IC50 (concentration that halved the viability)
pIC50 here: minus log base 10 of the concentration, concentration in moles per litre.

As a guide, the following entries are already answered.
O=c1[nH]cc(F)c(=O)[nH]1 [5-Fluorouracil, reference compound]: 9.17
COc1cc([C@H]2Oc3cc([C@H]4Oc5cc(O)c(Br)c(O)c5C(=O)[C@@H]4O)ccc3O[C@@H]2CO)ccc1O: 4.29
COc1cc([C@@H]2Oc3cc([C@H]4Oc5cc(O)c(Cl)c(O)c5C(=O)[C@@H]4O)ccc3O[C@H]2CO)ccc1O: 3.89
O=C1c2c(cc(O)c(Br)c2O)O[C@H](c2ccc(O)c(O)c2)[C@H]1O: 4.23
COc1cc([C@@H]2Oc3cc([C@H]4Oc5cc(O)c(Br)c(O)c5C(=O)[C@@H]4O)ccc3O[C@H]2CO)ccc1O: 4.79

I am curious: what pIC50 value has been reported for COc1cc([C@H]2Oc3cc([C@H]4Oc5c(Br)c(O)c(Br)c(O)c5C(=O)[C@@H]4O)ccc3O[C@@H]2CO)ccc1O ? 4.63

I am curious: what pIC50 value has been reported for COc1cc([C@H]2Oc3cc([C@H]4Oc5c(Br)c(O)cc(O)c5C(=O)[C@@H]4O)ccc3O[C@@H]2CO)ccc1O ? 3.94

====

assay: Ferric reducing antioxidant power (FRAP); details: Fe2+ equivalents
Test readout: FRAP [Fe2+eq] (Fe2+eq)
Give just the numeric value; Fe2+eq need not be written.

COc1cc([C@@H]2Oc3cc([C@H]4Oc5cc(O)cc(O)c5C(=O)[C@@H]4O)ccc3O[C@H]2CO)ccc1O [3b, silybin B, reference compound]: 0.078
COc1cc([C@@H]2Oc3cc([C@H]4Oc5c(I)c(O)cc(O)c5C(=O)[C@@H]4O)ccc3O[C@H]2CO)ccc1O: 0.079

# input for lookup
I am curious: what FRAP [Fe2+eq] value has been reported for COc1cc([C@@H]2Oc3cc([C@H]4Oc5c(Br)c(O)c(Br)c(O)c5C(=O)[C@@H]4O)ccc3O[C@H]2CO)ccc1O ? 0.081

====

system: Vibrio campbellii BAA 1118 (AI-1); assay: Viability of the quorum-sensing reporter culture (resazurin assay), AI-1 strain; format: cell-based; details: BAA1118, V. campbellii BAA 1118, resazurin assay, read-out: IC50 (concentration that halved the viability)
Test readout: pIC50
pIC50 here: minus log base 10 of the concentration, concentration in moles per litre.

As a guide, the following entries are already answered.
O=C1c2c(O)c(Br)c(O)c(Br)c2O[C@H](c2ccc(O)c(O)c2)[C@H]1O: 4.26
O=c1c(O)c(-c2ccc(O)c(O)c2)oc2c(Br)c(O)cc(O)c12: 4.56

I am curious: what pIC50 value has been reported for O=c1c(O)c(-c2ccc(O)c(O)c2)oc2c(Br)c(O)c(Br)c(O)c12 ? 4.86

I am curious: what pIC50 value has been reported for COc1cc([C@@H]2Oc3cc([C@H]4Oc5c(Br)c(O)c(Br)c(O)c5C(=O)[C@@H]4O)ccc3O[C@H]2CO)ccc1O ? 4.78

I am curious: what pIC50 value has been reported for COc1cc([C@@H]2Oc3cc([C@H]4Oc5c(Br)c(O)c(Br)c(O)c5C(=O)[C@@H]4O)ccc3O[C@H]2CO)cc(Br)c1O ? 5.14

I am curious: what pIC50 value has been reported for COc1cc([C@H]2Oc3cc([C@H]4Oc5cc(O)cc(O)c5C(=O)[C@@H]4O)ccc3O[C@@H]2CO)ccc1O [3a, silybin A, reference compound] ? 3.88

I am curious: what pIC50 value has been reported for COc1cc([C@@H]2Oc3c(O)cc(-c4oc5cc(O)cc(O)c5c(=O)c4O)cc3[C@H]2CO)ccc1O [compound 6, 2,3-dehydrosilychristin A, reference compound] ? 4.37

I am curious: what pIC50 value has been reported for COc1cc(C2Oc3cc(-c4oc5cc(O)cc(O)c5c(=O)c4O)ccc3OC2CO)ccc1O (stereo not drawn) [compound 4, 2,3-dehydrosilybin AB, reference compound] ? 3.79

I am curious: what pIC50 value has been reported for COc1cc([C@@H]2Oc3cc([C@H]4Oc5c(Br)c(O)cc(O)c5C(=O)[C@@H]4O)ccc3O[C@H]2CO)ccc1O ? 3.90

I am curious: what pIC50 value has been reported for COc1cc([C@@H]2Oc3c(O)cc(-c4oc5c(Br)c(O)cc(O)c5c(=O)c4O)cc3[C@H]2CO)ccc1O [compound 18, 8-Bromo-2,3-dehydrosilychristin A] ? 4.10
